TEST: Human HepG2 cell viability assay in 384 well format
Format: toxicity, cell-based
Set-up: dose 125 nL, time 70.5 hour; concentration not given beside the values
CONDITION INFO: HepG2 cells, read-out: Inhibition

| COMPOUND | OUTPUT UNIT | cytotoxicity at 70.5 h |
| --- | --- | --- |
| Cn1ccnc1CNC(=O)CC1CCCCO1 (stereo unspecified) | % | -6.84 |
| COc1c(C2CCCN2C(=O)c2ccnn2C)c(C)nn1C (stereo unspecified) | % | -4.02 |
| Cc1cc(CN(C)C(=O)c2cccc(CCC(C)(C)O)c2)no1 | % | -7.67 |
| CCCc1nc(N2CC[C@@H](c3ccc4c(c3)OCO4)[C@H](O)C2)no1 | % | -9.08 |
| Cn1cc(CN2CCc3c(nc(-c4ccccn4)[nH]c3=O)C2)cn1 | % | -23.4 |
| CCn1cc(S(=O)(=O)N2CCC(C)CC2)c(C)n1 | % | -14 |
| CO[C@H]1COCCN(C(=O)c2ccc(F)cc2)C1 | % | -3.92 |
| Cc1cnc(NC(C)Cc2cnccn2)nc1N(C)C (stereo unspecified) | % | -4.28 |
| CN1CCc2nnc(C3CCCN3S(=O)(=O)c3ccc(F)cc3)n2CC1 (stereo unspecified) | % | -3.97 |
| CC(C)NC(=O)c1ccc2c(c1)C1(CCN(C(C)C)CC1)C(=O)N2 | % | 0.266 |
| CCSc1ncc(-c2nccn2CCN(C)C)cn1 | % | 8.9 |
| c1cc(-c2nnc([C@H]3CCNC3)o2)ccn1 | % | -2.31 |
| CC(C)(C)n1ncc2c1NC(=O)CC2c1cccs1 (stereo unspecified) | % | -6.21 |
| Cn1ccnc1CN1CCc2onc(COCC3CC3)c2C1 | % | -4.62 |
| CC1=Nc2c(c(O)nn2C(C)C)C(c2cccnc2)S1 (stereo unspecified) | % | 26.1 |
| COc1ccc(NC2(C(=O)N3CCn4cncc4C3)CCCC2)cc1 | % | -11.8 |
| Cc1nc(N2CCOCC2)nc2c1CCN(C(=O)C1(C#N)CC1)CC2 | % | -9.06 |
| CN1CCN(C[C@@H]2OC[C@H]3CN(CCc4ccccc4)CC[C@H]32)CC1 | % | -0.223 |
| Cc1cc(C2CCCN(CCCS(C)(=O)=O)C2)n[nH]1 (stereo unspecified) | % | -4.49 |
| Cc1cc(CN2CCC3(CC2)C(=O)NCCN3CC2CC2)oc1C | % | 9.39 |
| COc1ccc2cccc(CC(=O)NCCc3n[nH]c(=O)[nH]3)c2c1 | % | -8.41 |
| COc1cc(N2CCCC3(CCN(c4cccnc4)C3=O)C2)ncn1 (stereo unspecified) | % | 19.9 |
| c1cc(CN2CCCC2c2noc(C3CC3)n2)on1 (stereo unspecified) | % | -15.8 |
| CC1CN(Cc2ccccc2)CCCN1CCCS(C)(=O)=O (stereo unspecified) | % | -4.81 |
| CNC(=O)N1CCc2nc(C(=O)Nc3cccnc3)sc2CC1 | % | -3.13 |
| Cc1cc(C)nc(N2CCC(C(=O)Nc3n[nH]c(C)n3)CC2)n1 | % | -7.75 |
| CCOC(C)c1nc(CN2CCN(CC(F)F)CC2)cs1 (stereo unspecified) | % | -5.97 |
| Cc1nc(C)n(CC2CCCN2CC(=O)NCCc2ccccc2)n1 (stereo unspecified) | % | -4.21 |
| CCOc1ccc(CNC(=O)N2CCCC(CO)C2)cc1F (stereo unspecified) | % | 0.25 |
| CCOc1ccccc1C(=O)NS(=O)(=O)c1ccc2c(c1)OCCCO2 | % | -4.55 |
| CCN(C)CCNC(=O)Cc1nc(-c2ccco2)oc1C | % | -13.2 |
| Cc1cc(-c2nn(C)c(Cl)c2CN2CCN(C)C(C(=O)O)C2)no1 (stereo unspecified) | % | -5.8 |
| Cc1nnc(C2Cc3ccccc3CN2Cc2nc(C(C)C)no2)o1 (stereo unspecified) | % | 1.77 |
| COc1ccc(-c2c[nH]c(C3CC(=O)N(CC(C)C)C3)n2)cc1 (stereo unspecified) | % | -7.11 |
| O=C(Cn1cnc2ccsc2c1=O)c1ccc2c(c1)OCCO2 | % | -8.67 |
| O=c1c2sccc2nc2n1CCN(Cc1ccc(F)c(F)c1)CC2 | % | -9.83 |
| COc1c(C2CCCN2c2ncnc3sccc23)c(C)nn1C (stereo unspecified) | % | -2.24 |
| CSc1cccc(CNC(=O)C2CC(=O)N(CCN(C)C)C2)c1 (stereo unspecified) | % | 4.55 |
| c1cncc(CN2CCc3ncnc(NCCc4c[nH]cn4)c3CC2)c1 | % | -1.46 |
| CCN(CC)C(=O)Cc1csc(C(C)C)n1 | % | 14 |
| CCc1nc(CN(C)CC(=O)N(C)C2CC2)cs1 | % | -12.2 |
| O=C(O)c1ccccc1-c1ccc(CN2CC(O)C2)cc1 | % | -11.6 |
| COc1cc(C(C)=O)ccc1SCC(=O)Nc1ccccn1 | % | 21.7 |
| CC(C)Cn1cc(NC(=O)N2CCOC(c3ccccc3)C2)cn1 (stereo unspecified) | % | -4.35 |
| CC(=O)Nc1ncc(S(=O)(=O)N2CCCC(C)C2)s1 (stereo unspecified) | % | -3.6 |
| COc1cc(CNC(C)Cn2cccn2)cc(OC)c1OC (stereo unspecified) | % | -7.54 |

Where do these numbers come from? They come from ChEMBL document CHEMBL3507680.
